Overview of recorded soluble fraction (log2) for various sequences
assay-notes: soluble fraction after stress (log2 fold change); higher = more stays soluble; pooled small domains, quantitative proteomics;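 further: 20 min heating vs room temperature control held 20 min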
conditions-used: stress: 75 degC
// keep it numeric: no unit symbol after the value

Some sequences with recorded soluble fraction (log2):
HMTDLNQIGERIKGLRDALGYSPEKMASILEQKVDDYLAYEEGTKDISLSVLQRIEKEFDIDLSTLLFGT :: -0.333
HMEIRNLMPILSHFLNENDIKLSRESVNLVLDRASGNRENLNNELKKIHDYSFSNKIIDFETIKKLTNLG :: -0.0896
HMNGEDVTDAIRLPQISQYASVVSAYPGVRAFLLEMQRDFARKGSVIMDGRDIGTVVLPEAEVKIFLT :: -0.367

Indicate the recorded soluble fraction (log2) value for this sequence: HMAPGSKAEIPEDLMKVINKDPKMKAFVATLNKANIMAISFRLSTAKKPETRERRFNLILETLKRGEKF -3.16

Indicate the recorded soluble fraction (log2) value for this sequence: HMNNSDIDITVGKNSISINNPNRTNIIIYSSNGMLIDSSKNASYKRNLPSGIYIVKSGSSTHKVIV -0.905

Indicate the recorded soluble fraction (log2) value for this sequence: HMGQKNEDESLAKFYVHKKGNQYGPYSLIQIREYLKNNSFSLDDLASWDGQSWKKISQIPNLN 0.12

Indicate the recorded soluble fraction (log2) value for this sequence: HMGSWEDALKNWVDSALASGQKGILEQAVPKFERIMIETALTHTAGRRRDASLLLGWGRNTLTRKIKELGI -0.383

Indicate the recorded soluble fraction (log2) value for this sequence: HMNMEYQKAINHIVQMVKDGQLIVGSKIPSERDLSESLGIGRNSTREAISILRGMGLVESRHGSGNYIAKD -0.2
